# tested target: Edg-1/S1P1 receptor (Homo sapiens)
# Construct: expressed in transfected cells; host or cells: human osteogenic sarcoma U2OS cells: Edg-1 Transfluor U2OS WT Clone #37 (assay I), Edg-1 Transfluor U2OS Clone #3 (assay II)
# assay comment: In vitro cell based receptor activation assay - Transfluor assay (assay I or II; beta-arrestin GFP relocalization after S1P stimulation)
# condition set: at 3.70 μM (titrated from top concentration 100 μM)
measurement label: inhibition at 3.7 µM (%)
Kindly provide the numeric value in % only, without the unit symbol.

compound	inhibition at 3.7 µM (%)
CCn1c([C@@H](C)NS(=O)(=O)c2ccc(Cl)cc2)nc2cc(OC(F)(F)F)ccc21	50.6
CCn1c([C@@H](C)NS(=O)(=O)c2ccc(Cl)cc2)nc2ccc(CN3CCOCC3)cc21	37.2
CCn1c([C@@H](C)NS(=O)(=O)c2ccc(Cl)cc2)nc2cccc(OC)c21	82
CCn1c([C@@H](C)NS(=O)(=O)c2ccc(Cl)cc2)nc2cc(F)c(F)cc21	79.5
CCCn1cc(S(=O)(=O)N[C@H](C)c2nc3ccc(C(F)(F)F)cc3n2CC)c(C)n1	84.5

What does the record list as inhibition at 3.7 µM for CCn1c([C@@H](C)NS(=O)(=O)c2ccc(Cl)cc2)nc2ccc(C(=O)N(C)C)cc21 (stereo in doubt) ?
21.7

And `CCn1ncc(S(=O)(=O)N[C@H](C)c2nc3ccc(C(F)(F)F)cc3n2CC)c1C` ?
78.6

Next entry: `CCn1c([C@@H](C)NS(=O)(=O)c2ccc(Cl)cc2)nc2cc(Br)ccc21`
91.6

Lookup CCn1c([C@@H](C)NS(=O)(=O)c2ccc(Cl)cc2)nc2ccc(C(=O)N3CCOCC3)cc21 (stereo in doubt)
8.88

Try this compound next: `CCn1c([C@@H](C)NS(=O)(=O)c2ccc(Cl)cc2)nc2ccc(C(N)=O)cc21`
77.3

###

Listed here are molecules together with their documented inhibition at 3.5 µM.
# tested target: Edg-1/S1P1 receptor (Homo sapiens, UniProt P21453)
# Construct: expressed in transfected cells; host or cells: human osteogenic sarcoma U2OS cells: Edg-1 Transfluor U2OS WT Clone #37 (assay I), Edg-1 Transfluor U2OS Clone #3 (assay II)
# Sequence (P21453 whole entry): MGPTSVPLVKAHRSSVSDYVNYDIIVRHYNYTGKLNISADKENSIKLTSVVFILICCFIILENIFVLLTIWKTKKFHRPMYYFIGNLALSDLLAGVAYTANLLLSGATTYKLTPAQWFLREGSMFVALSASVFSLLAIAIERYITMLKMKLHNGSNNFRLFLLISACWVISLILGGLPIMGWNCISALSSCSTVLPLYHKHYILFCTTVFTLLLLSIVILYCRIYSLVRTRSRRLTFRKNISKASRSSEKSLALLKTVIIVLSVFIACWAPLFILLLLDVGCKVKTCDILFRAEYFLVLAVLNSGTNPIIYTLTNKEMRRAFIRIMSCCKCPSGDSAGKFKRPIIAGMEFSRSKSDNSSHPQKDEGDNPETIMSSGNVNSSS
# assay comment: In vitro cell based receptor activation assay - Transfluor assay (assay I or II; beta-arrestin GFP relocalization after S1P stimulation)
# condition set: at 3.50 μM (titrated from top concentration 10 μM)
Provide the reading as a plain figure in %.

Below are worked cases with known answers.
CCn1c([C@@H](C)NS(=O)(=O)c2ccc(Cl)cc2)nc2cc(C)c(C)cc21 73
CCn1c([C@@H](C)NS(=O)(=O)c2cccnc2)nc2ccc(C(F)(F)F)cc21 92.8
CCn1c([C@@H](C)NS(=O)(=O)c2cnc(NN)c(Cl)c2)nc2ccc(C(F)(F)F)cc21 94.5
CCn1c([C@@H](C)NS(=O)(=O)c2ccc(C#N)nc2)nc2ccc(C(F)(F)F)cc21 93.1
CCn1c([C@@H](C)NS(=O)(=O)c2cccc(Cl)c2)nc2ccc(C(F)(F)F)cc21 96.7

Return reported inhibition at 3.5 µM; argument: `CCn1c([C@@H](C)NS(=O)(=O)c2ccc(CC(C)C)cc2)nc2ccc(C(F)(F)F)cc21`
64.1

Similarly, `CCn1c([C@@H](C)NS(=O)(=O)c2ccc(Cl)cc2)nc2cc(C(F)(F)F)ccc21` ?
86.1

Same question, `CCn1c([C@@H](C)NS(=O)(=O)c2ccc(Cl)cc2)nc2ccc(C(F)F)cc21` this time
85.2

###

Measured inhibition at 3.5 µM by item
# tested target: Edg-1/S1P1 receptor (Homo sapiens, UniProt P21453)
# Construct: expressed in transfected cells; host or cells: human osteogenic sarcoma U2OS cells: Edg-1 Transfluor U2OS WT Clone #37 (assay I), Edg-1 Transfluor U2OS Clone #3 (assay II)
# assay comment: In vitro cell based receptor activation assay - Transfluor assay (assay I or II; beta-arrestin GFP relocalization after S1P stimulation)
# condition set: at 3.50 μM (titrated from top concentration 10 μM)
Numbers only here, please. The scale is %.

molecule	tested target	measurement label	observed result
CCn1c(C2(NS(=O)(=O)c3ccc(Cl)cc3)CC2)nc2ccc(C(F)(F)F)cc21	Edg-1/S1P1 receptor (Homo sapiens, UniProt P21453)	inhibition at 3.5 µM	80.5

Which value of inhibition at 3.5 µM has been reported for `CCn1c(C(C)(C)NS(=O)(=O)c2ccc(C(N)=O)nc2)nc2ncccc21` in the records?
8.27

// next record `CCn1c([C@@H](C)NS(=O)(=O)c2ccc(C(N)=O)nc2)nc2cnc(C(F)(F)F)cc21`
93.3

###

# tested target: Edg-1/S1P1 receptor (Homo sapiens, UniProt P21453)
# Construct: expressed in transfected cells; host or cells: human osteogenic sarcoma U2OS cells: Edg-1 Transfluor U2OS WT Clone #37 (assay I), Edg-1 Transfluor U2OS Clone #3 (assay II)
# assay comment: In vitro cell based receptor activation assay - Transfluor assay (assay I or II; beta-arrestin GFP relocalization after S1P stimulation)
# condition set: at 3.50 μM (titrated from top concentration 10 μM)
In this section we review reported inhibition at 3.5 µM values for a set of molecules.
The answer is to be given in %; state only the numeric part.

// solved cases for inhibition at 3.5 µM follow
CCn1c([C@@H](C)NS(=O)(=O)c2ccc(F)c(C)c2)nc2ccc(C(F)(F)F)cc21 94.6
CCn1c([C@@H](C)NS(=O)(=O)c2ccc(Cl)cc2)nc2c(F)cccc21 93.4
CCn1c([C@@H](C)NS(=O)(=O)c2ccc(C#N)nc2)nc2cnc(OC)cc21 91.7
CCn1c([C@@H](C)NS(=O)(=O)c2ccc(F)cc2)nc2ccc(C(F)(F)F)cc21 90

Query molecule follows.
Entry `CCn1c([C@@H](C)NS(=O)(=O)c2ccc(F)c(F)c2F)nc2ccc(C(F)(F)F)cc21` has what inhibition at 3.5 µM?
95.3

###

# tested target: Edg-1/S1P1 receptor (Homo sapiens, UniProt P21453)
# Construct: expressed in transfected cells; host or cells: human osteogenic sarcoma U2OS cells: Edg-1 Transfluor U2OS WT Clone #37 (assay I), Edg-1 Transfluor U2OS Clone #3 (assay II)
# assay comment: In vitro cell based receptor activation assay - Transfluor assay (assay I or II; beta-arrestin GFP relocalization after S1P stimulation)
# condition set: at 3.50 μM (titrated from top concentration 10 μM)
Items are presented alongside their recorded inhibition at 3.5 µM.
Report as a plain number; the unit % is understood.

compound	measurement label	observed result
CCn1c([C@@H](C)NS(=O)(=O)c2ccc(C(N)=O)n2C)nc2ccc(C(F)(F)F)cc21	inhibition at 3.5 µM	93.6
CCn1c(C(C)(C)NS(=O)(=O)c2ccccc2)nc2ccc(C(F)(F)F)cc21	inhibition at 3.5 µM	88.3
CCn1c([C@@H](C)NS(=O)(=O)c2ccc(C#N)cc2)nc2ccc(C(F)(F)F)cc21	inhibition at 3.5 µM	87.4
CCn1c(C(C)NS(=O)(=O)c2ccc(N)nc2)nc2ccc(C(F)(F)F)cc21 (centres unmarked)	inhibition at 3.5 µM	83.1
CCn1c([C@@H](C)NS(=O)(=O)c2ccc(CCl)cc2)nc2ccc(C(F)(F)F)cc21	inhibition at 3.5 µM	86

Given the entry `CCn1c([C@@H](C)NS(=O)(=O)c2ccc(C#N)nc2)nc2cnc(C3CC3)cc21` , what inhibition at 3.5 µM was observed with Edg-1/S1P1 receptor (Homo sapiens, UniProt P21453)?
81.9

What about this compound? `CCn1c([C@@H](C)NS(=O)(=O)c2ccc(C(N)=O)nc2)nc2cnc(OC)cc21`
91.8

Record: `CCn1c([C@@H](C)NS(=O)(=O)c2cnc(Cl)c(Cl)c2)nc2ccc(C(F)(F)F)cc21`
95.4

Please answer likewise for `C#Cc1ccc(S(=O)(=O)N[C@H](C)c2nc3ccc(C(F)(F)F)cc3n2CC)cn1`
86.4

Same again, this time with `CCn1c([C@@H](C)NS(=O)(=O)c2ccc3c(c2)OCCO3)nc2ccc(C(F)(F)F)cc21`
93.9

What do we get for `CCn1c([C@@H](C)NS(=O)(=O)c2ccc(Cl)cc2)nc2ccc(C)cc21` ?
90.7

###

# tested target: Edg-1/S1P1 receptor (Homo sapiens, UniProt P21453)
# Construct: expressed in transfected cells; host or cells: human osteogenic sarcoma U2OS cells: Edg-1 Transfluor U2OS WT Clone #37 (assay I), Edg-1 Transfluor U2OS Clone #3 (assay II)
# assay comment: In vitro cell based receptor activation assay - Transfluor assay (assay I or II; beta-arrestin GFP relocalization after S1P stimulation)
# condition set: at 3.70 μM (titrated from top concentration 100 μM)
Below, each of the molecules is paired with its reported inhibition at 3.7 µM value.
Write the answer as a number in %, unit excluded.

molecule	observed result
CCn1c([C@@H](C)NS(=O)(=O)c2ccc(Cl)cc2)nc2ccc(F)c(F)c21	84.2
CCn1c([C@@H](C)NS(=O)(=O)c2ccc(Cl)cc2)nc2cc(C)c(Cl)cc21	78.2
CCn1c(C(Cc2ccccc2)NS(=O)(=O)c2ccc(Cl)cc2)nc2ccccc21 (stereo not shown)	73.2
CCn1c([C@@H](C)NS(=O)(=O)c2ccc(Cl)cc2)nc2cc(F)cc(F)c21	84.5
CCn1c([C@@H](C)NS(=O)(=O)c2ccc(Cl)cc2)nc2cc(-c3cccnc3)ccc21	10.3

Entry CCn1c(C(C)NS(=O)(=O)c2ccc(Cl)cc2)nc2c(Cl)nccc21 (stereo not shown) : reported inhibition at 3.7 µM = ?
91.6

Would you kindly repeat that for `CCn1c([C@@H](C)NS(=O)(=O)c2ccc3nsnc3c2)nc2ccc(C(F)(F)F)cc21` ?
89.8

Now consider `CCn1c([C@@H](C)NS(=O)(=O)c2c(F)cc(F)cc2F)nc2ccc(C(F)(F)F)cc21` and answer again.
92.8

Another molecule: CCn1c(C(CC(C)C)NS(=O)(=O)c2ccc(Cl)cc2)nc2ccccc21 (stereo not shown)
66.4

Again, but for `CCn1c([C@@H](C)NS(=O)(=O)c2ccc(Cl)cc2)nc2cc(-c3ccncc3)ccc21`
16.4

Now give it for CCn1c(C(Cc2ccc(F)cc2)NS(=O)(=O)c2ccc(Cl)cc2)nc2ccccc21 (stereo not shown) too.
77.7

How about this molecule: `CCn1c([C@@H](C)NS(=O)(=O)c2cnc(NC(C)=O)s2)nc2ccc(C(F)(F)F)cc21`
49

Consider next the molecule CC(C)Cn1c(C(C)NS(=O)(=O)c2ccc(Cl)cc2)nc2ccccc21 (stereo not shown) in the same way.
16.4

How about `CCn1c([C@@H](C)NS(=O)(=O)c2ccc(Cl)cc2)nc2cc(Br)c(C(F)(F)F)cc21` ?
62.3

Moving on to CCn1c(C(C)NS(=O)(=O)c2ccc(Cl)cc2)nc2ccc(C(F)(F)F)cc21 (stereo not shown)
94.5

Thanks! And `CCn1c([C@@H](C)NS(=O)(=O)c2ccc(Cl)cc2)nc2cc(CO)ccc21` ?
58.4

Similarly, `CCCn1ncc(S(=O)(=O)N[C@H](C)c2nc3ccc(C(F)(F)F)cc3n2CC)c1C` ?
77.5

Now consider `CCn1c([C@@H](C)NS(=O)(=O)c2ccsc2)nc2ccc(C(F)(F)F)cc21` and answer again.
89.6

Next molecule up: `CCn1c([C@@H](C)NS(=O)(=O)C2CCCC2)nc2ccc(C(F)(F)F)cc21`
66.1

Also `CCn1c([C@@H](C)NS(=O)(=O)c2ccc(Cl)cc2)nc2cccc(Cl)c21` , if possible.
51.7

And then `CCn1c([C@@H](C)NS(=O)(=O)c2cn(C)nc2C)nc2ccc(C(F)(F)F)cc21` , what is it?
61

Now consider `CCn1c([C@@H](C)NS(=O)(=O)c2ccc(Cl)cc2)nc2cccc(F)c21` .
97.7
